// merged dataset of Ki values, system = 72 kDa type IV collagenase (Homo sapiens, UniProt P08253), multiple refs
Sequence (P08253 whole entry): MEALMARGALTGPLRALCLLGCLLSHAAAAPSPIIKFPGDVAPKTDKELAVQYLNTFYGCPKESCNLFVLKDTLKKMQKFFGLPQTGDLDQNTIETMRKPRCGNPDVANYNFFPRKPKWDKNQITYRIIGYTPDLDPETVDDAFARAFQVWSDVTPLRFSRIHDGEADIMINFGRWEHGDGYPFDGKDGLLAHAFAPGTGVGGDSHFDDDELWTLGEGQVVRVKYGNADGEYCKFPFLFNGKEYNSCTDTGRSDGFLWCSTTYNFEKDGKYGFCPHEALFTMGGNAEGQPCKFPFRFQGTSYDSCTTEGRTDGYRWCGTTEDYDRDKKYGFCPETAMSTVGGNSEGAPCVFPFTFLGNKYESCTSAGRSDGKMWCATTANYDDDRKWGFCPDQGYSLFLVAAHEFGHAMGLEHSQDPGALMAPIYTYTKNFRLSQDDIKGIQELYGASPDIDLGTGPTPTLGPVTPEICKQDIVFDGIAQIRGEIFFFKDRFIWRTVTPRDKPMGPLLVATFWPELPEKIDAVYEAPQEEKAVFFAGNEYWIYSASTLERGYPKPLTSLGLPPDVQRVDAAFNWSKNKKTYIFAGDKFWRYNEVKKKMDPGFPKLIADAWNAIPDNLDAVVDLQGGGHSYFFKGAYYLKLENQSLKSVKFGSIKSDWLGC
Report only the number, with the unit nM understood.

Some solved cases for reference:
Compound	Readout units	Test value
CC(C)C[C@H](CC(=O)NO)C(=O)N[C@@H](Cc1c[nH]c2ccccc12)C(=O)NCc1ccc2c(c1)OCO2	nM	6.9
CNC(=O)[C@@H]1CCCCNC(=O)CC[C@H](C(=O)O)N[C@@H](CCc2ccc(-c3ccccc3)cc2)C(=O)N1	nM	249
COc1ccc(S(=O)(=O)C(CC(=O)NO)C2CCCCC2)cc1 (stereo not given)	nM	8

Proceeding to the next compound to report its Ki.
Requested read-out: Ki. Entry: `CCc1ccc(CC[C@H](N[C@H](C)C(=O)O)C(=O)N[C@@H](CC(C)C)C(=O)Nc2ccccc2)cc1`
12

---

// merged dataset of Ki values, system = UniProt P08253, multiple refs
Report only the number, with the unit nM understood.

Some solved cases for reference:
Compound string	Test value
CC(C)C[C@H](CC(=O)NO)C(=O)N[C@H](Cc1ccc(-c2ccccc2)cc1)C(=O)NCCCN1CCOCC1	6.7
CCOc1cc(COc2ccc3c(c2)NCCN([C@H](CCCC(=O)OC)C(=O)NO)S3(=O)=O)cc(OCC)c1	1380
C[C@H](C(=O)NO)N1CCNc2cc(Oc3cccc([N+](=O)[O-])c3)ccc2S1(=O)=O	85

Requested read-out: Ki. Entry: `Cc1ccc(CC[C@H](N[C@H](C)C(=O)O)C(=O)N[C@@H](CC(C)C)C(=O)Nc2ccccc2)cc1C`
25

Requested read-out: Ki. Entry: `CC(C)ON(CC(=O)NO)S(=O)(=O)c1ccc(-c2ccc(OCc3ccc(Cl)cc3)cc2)cc1`
25

Requested read-out: Ki. Entry: `CC(C)C[C@H](NC(=O)[C@H](CCc1ccccc1)N[C@H](C)C(=O)O)C(=O)Nc1ccccc1`
200

Requested read-out: Ki. Entry: `CC(C)C[C@H](CC(=O)NO)C(=O)N[C@@H](Cc1c[nH]c2ccccc12)C(=O)NCc1ccco1`
0.92

Requested read-out: Ki. Entry: `CNC(=O)[C@@H](Cc1c(F)c(F)c(F)c(F)c1F)NC(=O)Nc1nnc(S)s1`
3000

Requested read-out: Ki. Entry: `CCCCCO[C@H](CC(=O)NO)C(=O)N[C@@H](Cc1c[nH]c2ccccc12)C(=O)NC`
43

Requested read-out: Ki. Entry: `CC(C)C[C@H](CC(=O)NO)C(=O)N[C@@H](Cc1c[nH]c2ccccc12)C(=O)NCCCn1ccnc1`
1.3

Requested read-out: Ki. Entry: `CCCCCNC(=O)[C@H](Cc1c[nH]c2ccccc12)NC(=O)[C@@H](CC(=O)NO)CC(C)C`
4.6

Requested read-out: Ki. Entry: `CCCC[C@@H](C[C@@H](CCc1ccc(-c2ccc(C(=O)N(C)C)cc2)cc1)C(=O)N[C@H](C(=O)NC)C(C)(C)C)C(=O)O`
50

---

// merged dataset of pKi values, system = 72 kDa type IV collagenase (Homo sapiens, UniProt P08253), multiple refs
Answer as the number alone; pKi is minus log10 of concentration in mol/L.

Compound string	Experimental target	pKi
CN1C(=O)N(C[C@H](C(=O)NO)[C@H](CC2CCCC2)C(=O)N2CCCCC2)C(=O)C1(C)C	72 kDa type IV collagenase (Homo sapiens, UniProt P08253)	6.81
CC(C)C[C@H](CC(=O)NO)C(=O)N[C@@H](Cc1c[nH]c2ccccc12)C(=O)NCc1nc2ccccc2[nH]1	72 kDa type IV collagenase (Homo sapiens, UniProt P08253)	8.14

Reported pKi for 72 kDa type IV collagenase (Homo sapiens, UniProt P08253), given `COc1cc(CNc2ccc3c(c2)NCCN([C@H](CC(C)C)C(=O)NO)S3(=O)=O)cc(OC)c1` ?
7.12
